Reference for the values: PubChem BioAssay AID651999

Collected inhibition values appear next to each entry.
# Study Target: COP9 signalosome complex subunit 5 (Homo sapiens)
# Procedure Text: CSN5 deneddylase inhibitors on cullin-RING ligase – biochemical, fluorescence polarization, uHTS, primary screen (AID 651999);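 further: 0% = enzyme with substrate and 100% = substrate without enzyme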
# Condition Details: Purified CSN, SCF-Nedd8-OG deneddylation, at 12.5 µM, hits give high values
Screen size: about 360,000 compounds; about 1,400 (0.39%) were called active. This is one part of a sample in which actives are shown more often than they occur.
// return numeric value only (unit: %, not printed)

Cc1ccn(CCC(=O)N2c3ccccc3CC2C)n1 (centres undefined)    0.86
COc1cccc(CN(C)CC(=O)Nc2sc3c(c2C#N)CCC3)c1    4.05
CCCSc1nc2sc3c(c2c(=O)n1-c1ccc(OC)cc1)CCN(C)C3    7.27

Identify measured inhibition obtained with COP9 signalosome complex subunit 5 (Homo sapiens) for CCc1nc2c(=O)[nH]cnc2o1 .
-0.47

Return reported inhibition for target or system COP9 signalosome complex subunit 5 (Homo sapiens), item COc1ccc(NC(=O)CSc2nc3ccccc3c(=O)n2C)cc1 .
81.7

Report inhibition from COP9 signalosome complex subunit 5 (Homo sapiens) testing of O=C(CSc1nc2ccccc2c(=O)[nH]1)Nc1nc(-c2ccc(Br)cc2)cs1
55.8

# lookup: COP9 signalosome complex subunit 5 (Homo sapiens) inhibition, key = CC[n+]1cc(C)ccc1/C=C/c1ccc(N(C)C)cc1
35.4

Quote COP9 signalosome complex subunit 5 (Homo sapiens) inhibition for entry O=C(COc1ccc2c(C(F)(F)F)cc(=O)oc2c1)Nc1ccc2c(c1)OCCO2 .
187

Give the observed inhibition of CCCn1c(C)cc(-c2csc(NC(=O)CCc3nc4ccccc4c(=O)[nH]3)n2)c1C for COP9 signalosome complex subunit 5 (Homo sapiens).
5.04

Please indicate recorded inhibition of CCCNC(=O)C(=O)Nc1cc2c3c(c1)CCC(=O)N3CCC2 measured with COP9 signalosome complex subunit 5 (Homo sapiens).
-1.23

Provide inhibition, recorded with COP9 signalosome complex subunit 5 (Homo sapiens), of Cn1c(=O)[nH]c2c(c(C(=O)O)nn2C)c1=O
-1.75

// fetch inhibition; item: COc1ccc(-n2nnc3c(=O)n(CC(=O)N4CCC(Cc5ccccc5)CC4)cnc32)cc1 ; system: COP9 signalosome complex subunit 5 (Homo sapiens)
-0.9

// fetch inhibition; item: CCN(CC(=O)NCC(=O)Nc1cccc(C)c1C)Cc1ccccc1 ; system: COP9 signalosome complex subunit 5 (Homo sapiens)
1.96

Look up COP9 signalosome complex subunit 5 (Homo sapiens) data: inhibition of CC1(C2CC2)NC(=O)N(CC(=O)N2CCN(c3ccccc3F)CC2)C1=O (centres undefined) , then report it.
-0.85

Lab note: record inhibition of O=C(COC(=O)c1cc(=O)[nH]c2ccccc12)Nc1nc(-c2cccc(Br)c2)cs1 tested on COP9 signalosome complex subunit 5 (Homo sapiens).
3.39

Give inhibition; test system COP9 signalosome complex subunit 5 (Homo sapiens); compound O=C(COc1ccc([N+](=O)[O-])cc1)Nc1ccc(N2CCCC2)cc1
45.2

Give measured inhibition for CCOc1ccc(-n2c(SCC(=O)Nc3ccc(OC)cc3)nc3sc4c(c3c2=O)CCN(C)C4)cc1 (COP9 signalosome complex subunit 5 (Homo sapiens)).
102

Identify measured inhibition obtained with COP9 signalosome complex subunit 5 (Homo sapiens) for Oc1ccc(N=Cc2c(O)ccc3ccccc23)cc1 .
58.2

Specify inhibition for C/C(=N/NS(=O)(=O)c1ccccc1)c1ccc(NC(=O)C(F)(F)F)cc1 , system COP9 signalosome complex subunit 5 (Homo sapiens).
-3.71

System COP9 signalosome complex subunit 5 (Homo sapiens). Read-out inhibition. Item CCCC/C=C/c1cccc2nncn12 . Report value.
-1.69
